# Tested on: P. falciparum 3D7 trophozoites
# test_protocol: Metabolomic fingerprint profiling LC-MS
# Format: cell-based, Plasmodium falciparum
# particulars: S2 Table Metabolomics; metabolite dihydroorotate
readout_type: dihydroorotate
Answer with the value's number alone.

Solved cases below.
| molecule | dihydroorotate |
| --- | --- |
| CCC1(C)CC(CCNCc2ccccc2O)(c2ccc(C)cc2)CCO1 (stereo not shown) [MMV019406] | -2.242 |
| CN(C)c1ccc(C=Cc2nc(=O)c3ccccc3o2)cc1 [MMV006309] | 3.691 |
| COc1ccc(-c2nc(NC(=O)CS(=O)(=O)c3ccc(F)cc3)sc2C)cc1 [MMV665915] | -0.4672 |
| COc1cccc(C=Cc2nc(=O)c3ccccc3o2)c1OC [MMV666693] | 3.894 |
| CCOC(=O)c1cn(CC)c2cc(N3CCCCC3)c(F)cc2c1=O [MMV665827] | 4.825 |
| Cc1cc(C)cc(Nc2cc(C)nc3nc(C(F)(F)F)nn23)c1 [MMV011259] | 4.069 |
| Cc1cc(Nc2ccc3ccccc3c2)n2ncnc2n1 [MMV011099] | 4.157 |
| CCOC(=O)c1c(C)n(-c2ccc(Cl)cc2)c2ccc(OC(=O)C=Cc3ccccc3)cc12 [MMV666600] | 0.2265 |

In plain terms, COc1ccc(C2=C(c3ccc(OC)cc3)C3(c4ccccc4)C(=O)C2(c2ccccc2)C2C(=O)N(c4ccc(C)cc4)C(=O)C23)cc1 (stereo not shown) [MMV666101] has a documented dihydroorotate of 0.3476

###

# Tested on: P. falciparum 3D7 trophozoites
# test_protocol: Metabolomic fingerprint profiling LC-MS
# Format: cell-based, Plasmodium falciparum
# particulars: metabolite UDP-N-acetyl-glucosamine, S2 Table Metabolomics
Each entry below carries its recorded UDP-N-acetyl-glucosamine.

| compound | experimental_target | endpoint_value |
| --- | --- | --- |
| CCCCCCOC(=O)C1=C(C)NC(=O)NC1c1ccccc1F (centres unmarked) | P. falciparum 3D7 trophozoites | -0.1743 |

In plain terms, Cc1cc(C)cc(Nc2cc(C)nc3nc(C(F)(F)F)nn23)c1 has a documented UDP-N-acetyl-glucosamine of -0.5126

In plain terms, CCOC(=O)c1cnc2c(C)cc(C)cc2c1Nc1ccc(OC)c(OC)c1 has a documented UDP-N-acetyl-glucosamine of -0.5063

In plain terms, COc1ccc(-c2nc3cc(Cc4ccc5[nH]c(-c6ccc(OC)cc6)nc5c4)ccc3[nH]2)cc1 has a documented UDP-N-acetyl-glucosamine of -0.1799

In plain terms, C[n+]1c2ccccc2nc2ccc(NCCO)cc21 has a documented UDP-N-acetyl-glucosamine of 0.1832

###

Each entry below carries its recorded EC50.
# System: P. falciparum 3D7, HB3, Dd2, W2, K1, FCR3
# test_protocol: Asexual EC50 image assay, six strains, Ayong
# Format: cell-based
# particulars: Plasmodium falciparum; read-out: P. falciparum Dd2 asexual blood stage EC50 (Image) Ayong
API: value field is a number in nM; no unit string.

| chemical_string | experimental_target | readout_type | endpoint_value |
| --- | --- | --- | --- |
| CCN1CCN(c2cc(C)c3cc(NC(=O)c4ccc(OC)c(OC)c4)ccc3n2)CC1 | P. falciparum 3D7, HB3, Dd2, W2, K1, FCR3 | EC50 | 1270 |

In plain terms, CCN(CC)c1cc(C)c2cc(NC(=O)c3cccc(OC)c3)ccc2n1 has a documented EC50 of 2450

In plain terms, COc1cc2cc(C(=O)Nc3ccccc3)c(N)nc2cc1OC has a documented EC50 of 357
